Target: T1, cynomolgus Tyro3 ECD, His-Strep tagged
T1 construct: also called cyno TYRO3 ECD 8hisstrep
T1 extracellular domain: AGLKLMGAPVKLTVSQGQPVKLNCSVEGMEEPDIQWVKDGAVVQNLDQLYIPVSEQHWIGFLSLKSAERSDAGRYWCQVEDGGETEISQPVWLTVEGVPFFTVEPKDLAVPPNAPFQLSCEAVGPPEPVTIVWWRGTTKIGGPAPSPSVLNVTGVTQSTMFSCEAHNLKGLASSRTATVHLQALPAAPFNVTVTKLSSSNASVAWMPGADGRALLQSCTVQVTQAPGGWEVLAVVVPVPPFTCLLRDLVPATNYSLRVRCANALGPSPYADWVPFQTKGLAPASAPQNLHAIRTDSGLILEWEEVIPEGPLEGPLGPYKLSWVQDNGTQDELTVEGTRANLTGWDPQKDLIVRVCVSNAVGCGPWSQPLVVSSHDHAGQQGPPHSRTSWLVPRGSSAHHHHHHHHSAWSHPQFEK
Assay: sandwich ELISA, Strep-tagged cynomolgus Tyro3 ECD captured on StrepMAB plate, IgG 3-fold from 3 µg/mL, anti-human IgG1-HRP
MEASUREMENT_NAME: binding result

[in] GET /values?readout=binding result&item= IgG2414 (antibody, V domains shown, also called IGX2414) VH: EVQLVQSGADVKKPGASLTISCQASGYTFTDYWISWVRQKPGKGLEWMGQINRHASNTMYGPSFQGHVTISADRSTATAYLQWRSLEASDTAMYYCVRSGGATSGGTIPEYYQHWGPGTLVTVSS VL: SYELTQPPSVSVSPGQTARITCSGDALPKKYAYWYQQKSGQAPVLVIYEDWKRASGIPERFSGSSSGTMATLTISGAQVEDEADYYCYSQERKGNYFVFGGGTKLTVL
[out] binds

[in] GET /values?readout=binding result&item= IgG2412 (antibody, V domains shown, also called IGX2412) VH: EVQLVQSGADVKKPGASLTISCQASGYTFTDYWISWVRQKPGKGLEWMGRIRPLLSHTMYGPSFQGHVTISADRSTATAYLQWRSLEASDTAMYYCVRSWLATSGGTIPEYYQHWGPGTLVTVSS VL: SYELTQPPSVSVSPGQTARITCSGDALPKKYAYWYQQKSGQAPVLVIYEDAKRVSGIPERFSGSSSGTMATLTISGAQVEDEADYYCYSASANGNYRVFGGGTKLTVL
[out] binds

[in] GET /values?readout=binding result&item= IgG2711 (antibody, V domains shown, also called IGX2711) VH: EVQLVQSGADVKKPGASLTISCQASGYTFTDYWISWVRQKPGKGLEWMGQIRGQHSSTLYGPSFQGHVTISADRSTATAYLQWRSLEASDTAMYYCVRHGASTSGGTIPEYYQHWGPGTLVTVSS VL: SYELTQPPSVSVSPGQTARITCSGDALPKKYAYWYQQKSGQAPVLVIYEDAKRSSGIPERFSGSSSGTMATLTISGAQVEDEADYYCYSLSDSGNYFVFGGGTKLTVL
[out] binds
